Where do the numbers come from? From the supplement of paper PMC5844555.

System: ZEB2
Assay: 3' UTR reporter interaction score (median-centred robust z-score of log2 firefly/Renilla activity); higher = less repression of the 3' UTR reporter
Conditions: HEK293T; 48 h
property: 3' UTR reporter interaction score

residue string	property	endpoint result
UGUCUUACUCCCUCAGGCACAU	3' UTR reporter interaction score	-0.976
CUGGAUGGCUCCUCCAUGUCU	3' UTR reporter interaction score	0.281
AUUCUAAUUUCUCCACGUCUUUG	3' UTR reporter interaction score	-0.49
UCUCCCAACCCUUGUACCAGUG	3' UTR reporter interaction score	0.808
AACGCGCUUCCCUAUAGAGGG	3' UTR reporter interaction score	-0.982
UGAAGGUCUACUGUGUGCCAG	3' UTR reporter interaction score	0.194
AAUAUUAUACAGUCAACCUCU	3' UTR reporter interaction score	0.391
GUGUCUUUUGCUCUGCAGUCA	3' UTR reporter interaction score	-1.45

====

Tested on: FBXW7
Assay: 3' UTR reporter interaction score (median-centred robust z-score of log2 firefly/Renilla activity); higher = less repression of the 3' UTR reporter
Settings: HEK293T; 48 h
property: 3' UTR reporter interaction score

residue string	property	endpoint result
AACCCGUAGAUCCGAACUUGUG	3' UTR reporter interaction score	-0.349
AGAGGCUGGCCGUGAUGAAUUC	3' UTR reporter interaction score	-0.536
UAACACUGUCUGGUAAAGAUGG	3' UTR reporter interaction score	-0.104

====

Known 3' UTR reporter interaction score of a selection of sequences
System: RB1
Assay: 3' UTR reporter interaction score (median-centred robust z-score of log2 firefly/Renilla activity); higher = less repression of the 3' UTR reporter
Conditions: HEK293T; 48 h
property: 3' UTR reporter interaction score

residue string	subject of test	endpoint result
UCAGAACAAAUGCCGGUUCCCAGA	RB1	-0.316
UGGCAGUGUCUUAGCUGGUUGUU	RB1	-0.641
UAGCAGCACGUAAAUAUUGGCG	RB1	-0.115
AUCAACAGACAUUAAUUGGGCGC	RB1	1.49
UAAUACUGCCGGGUAAUGAUGG	RB1	0.254
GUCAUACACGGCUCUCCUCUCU	RB1	-0.0565
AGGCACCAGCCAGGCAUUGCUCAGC	RB1	0.342
AUCGUGCAUCCCUUUAGAGUGUU	RB1	0.943
UAAACGUGGAUGUACUUGCUUU	RB1	0.153
UACAGUAUAGAUGAUGUACUAG	RB1	0.00103
GUCCGCUCGGCGGUGGCCCA	RB1	-0.471
UUAAUGCUAAUCGUGAUAGGGG	RB1	-0.667
UGGUAGACUAUGGAACGUA	RB1	1.85
CAUGCCUUGAGUGUAGGACCGU	RB1	0.637
AAACCGUUACCAUUACUGAGUUU	RB1	-0.236
UUCAAGUAAUUCAGGAUAGGUU	RB1	-1.95
CGAAUGUUGCUCGGUGAACCCCU	RB1	0.281
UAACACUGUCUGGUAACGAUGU	RB1	0.104
UGGAAUGUAAAGAAGUAUGUA	RB1	0.684
UACUCAGGAGAGUGGCAAUCACA	RB1	-0.0737
UCACAAUGCUGACACUCAAACUGCUGAC	RB1	-0.143
GAAGGCGCUUCCCUUUGGAGU	RB1	0.389
UCUUUGGUUAUCUAGCUGUAUGA	RB1	0.127
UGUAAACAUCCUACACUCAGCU	RB1	0.456
CAUAAAGUAGAAAGCACUAC	RB1	0.941
UUUGGCACUAGCACAUUUUUGC	RB1	0.451
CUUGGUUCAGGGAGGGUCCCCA	RB1	-0.223
ACUCAAAACCCUUCAGUGACUU	RB1	-0.026
UCCUGUACUGAGCUGCCCCGAG	RB1	-2.81
UCUACAGUGCACGUGUCU	RB1	0.634
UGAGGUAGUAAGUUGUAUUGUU	RB1	0.186
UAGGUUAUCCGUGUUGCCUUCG	RB1	-0.0884
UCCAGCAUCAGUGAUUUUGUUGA	RB1	-0.243
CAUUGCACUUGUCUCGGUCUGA	RB1	0.825
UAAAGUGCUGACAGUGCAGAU	RB1	-0.838
AGUGACAUCACAUAUACGGCAGC	RB1	0.945
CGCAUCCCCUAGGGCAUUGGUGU	RB1	-0.799
AAGCAGCUGCCUCUGAGGC	RB1	0.293
AGCUGUCUGAAAAUGUCUU	RB1	0.19
GUGCCUACUGAGCUGAUAUCAGU	RB1	0.454
UCACAGUGAACCGGUCUCUUUC	RB1	-0.537
